B1: KRT13 (parent)
chain: KTIEELRDKILTATIENNRVILEI

# Variants of: B1
# test.summary: protein stability index of a GFP-peptide fusion (GPS, HEK-293T) (PSI 1-6); higher = more stable;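 note: lentivirally expressed fusions sorted by FACS into six bins by GFP to DsRed ratio, PSI derived from sequencing read proportions per bin multiplied by bin number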
# cond: c terminus: a fixed tail appended
Labels assigned by protein stability index range: b0: < 2; b1: ≥ 2 and < 3; b2: ≥ 3

KTIEELRDKILTGTIENNRVILEI [A13G] : b2

Prompt: Please classify: KTIEELPDKILTATIENNRVILEI [R7P]
Response: b0

Prompt: Using the reported protein stability index, which band applies to KTIEELRMKILTATIENNRVILEI [D8M] ?
Response: b2

Prompt: Which band does KTIEELRDKILTPTIENNRVILEI [A13P] fall in?
Response: b0

Prompt: Kindly state the category for this variant: KTIEELRDKIKTATIENNRVILEI [L11K]
Response: b0

Prompt: Into which bin does this variant go? KTIEELRDKILTATTENNRVILEI [I15T]
Response: b1

Prompt: Looking at KTIEEYRDKILTATIENNRVILEI [L6Y] , which class would you pick?
Response: b2
